assay: Therapeutic window, ratio of IC50 for human fetal neuronal stem cells to IC50 for human HD-MB03 cells; type: ADME; conditions: fetal neuronal stem cells versus HD-MB03 cells, read-out: Ratio IC50
MEASURED METRIC: selectivity ratio
Quick one: just the number, no unit, thanks!

*Q* Name the reported selectivity ratio value associated with the compound O=C(/C=C/c1cccc(S(=O)(=O)Nc2ccccc2)c1)NO [BELINOSTAT]
*A* 3.7

###

// IC50 at 72 h lookup, one value per entry
assay: in vitro; conditions: human, MRC9 cells

COMPOUND: O=C(NO)c1ccc(CN(C2CCCC2)S(=O)(=O)c2cc(F)c(F)c(F)c2F)cc1
IC50 at 72 h: > 50 µM

COMPOUND: CC(C)N(Cc1ccc(CC(=O)NO)cc1)S(=O)(=O)c1cc(F)c(F)c(F)c1F
IC50 at 72 h: > 25 µM

COMPOUND: O=C(NO)c1ccc2c(c1)CCN(S(=O)(=O)c1cc(F)c(F)c(F)c1F)C2
IC50 at 72 h: > 25 µM

COMPOUND: O=C(CCCCCCNC(=O)c1cnc(N(c2ccccc2)c2ccccc2Cl)nc1)NO [CITARINOSTAT]
IC50 at 72 h: > 30 µM

*Q* Name the reported IC50 at 72 h value associated with the compound O=C(NO)c1ccc(CN(C2CC2)S(=O)(=O)c2cc(F)c(F)c(F)c2F)cc1
*A* > 20 µM
